B1: 1-phosphatidylinositol 4,5-bisphosphate phosphodiesterase gamma-2, residues 772 to 827; numbered along this chain, P16885 (parent)
chain: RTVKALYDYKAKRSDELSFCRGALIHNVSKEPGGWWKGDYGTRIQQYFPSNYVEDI

variants of: B1; assay: abundance fitness (aPCA) (normalised: wild type 0, dead -1); higher = more abundant; growth selection in yeast, the domain comes from the species named; settings: Homo sapiens
quantity_measured: abundance fitness
Please give the numeric answer without any surrounding text.

{"columns": ["mutation_key", "abundance fitness"],
 "data": [
  ["F19V", -0.886],
  ["A5Q", -0.865],
  ["T2M", -0.241],
  ["E31W", 0.036],
  ["W36T", -0.89]
]}

// query For the variant "T42R" , what abundance fitness is on record?
// result 0.03

// query And what about the variant "F48A" ?
// result -1.02

// query Okay, and "A5N" ?
// result -0.964

// query Follow-up entry: "N27M"
// result -0.695

// query Cool, now "D55A"
// result -0.114

// query Repeat with "Y40W"
// result -0.713

src = the Human Domainome abundance scans (Beltran et al. 2025)
